assayedTarget: UniProt:H0UWL7
Sequence (H0UWL7 33-1302): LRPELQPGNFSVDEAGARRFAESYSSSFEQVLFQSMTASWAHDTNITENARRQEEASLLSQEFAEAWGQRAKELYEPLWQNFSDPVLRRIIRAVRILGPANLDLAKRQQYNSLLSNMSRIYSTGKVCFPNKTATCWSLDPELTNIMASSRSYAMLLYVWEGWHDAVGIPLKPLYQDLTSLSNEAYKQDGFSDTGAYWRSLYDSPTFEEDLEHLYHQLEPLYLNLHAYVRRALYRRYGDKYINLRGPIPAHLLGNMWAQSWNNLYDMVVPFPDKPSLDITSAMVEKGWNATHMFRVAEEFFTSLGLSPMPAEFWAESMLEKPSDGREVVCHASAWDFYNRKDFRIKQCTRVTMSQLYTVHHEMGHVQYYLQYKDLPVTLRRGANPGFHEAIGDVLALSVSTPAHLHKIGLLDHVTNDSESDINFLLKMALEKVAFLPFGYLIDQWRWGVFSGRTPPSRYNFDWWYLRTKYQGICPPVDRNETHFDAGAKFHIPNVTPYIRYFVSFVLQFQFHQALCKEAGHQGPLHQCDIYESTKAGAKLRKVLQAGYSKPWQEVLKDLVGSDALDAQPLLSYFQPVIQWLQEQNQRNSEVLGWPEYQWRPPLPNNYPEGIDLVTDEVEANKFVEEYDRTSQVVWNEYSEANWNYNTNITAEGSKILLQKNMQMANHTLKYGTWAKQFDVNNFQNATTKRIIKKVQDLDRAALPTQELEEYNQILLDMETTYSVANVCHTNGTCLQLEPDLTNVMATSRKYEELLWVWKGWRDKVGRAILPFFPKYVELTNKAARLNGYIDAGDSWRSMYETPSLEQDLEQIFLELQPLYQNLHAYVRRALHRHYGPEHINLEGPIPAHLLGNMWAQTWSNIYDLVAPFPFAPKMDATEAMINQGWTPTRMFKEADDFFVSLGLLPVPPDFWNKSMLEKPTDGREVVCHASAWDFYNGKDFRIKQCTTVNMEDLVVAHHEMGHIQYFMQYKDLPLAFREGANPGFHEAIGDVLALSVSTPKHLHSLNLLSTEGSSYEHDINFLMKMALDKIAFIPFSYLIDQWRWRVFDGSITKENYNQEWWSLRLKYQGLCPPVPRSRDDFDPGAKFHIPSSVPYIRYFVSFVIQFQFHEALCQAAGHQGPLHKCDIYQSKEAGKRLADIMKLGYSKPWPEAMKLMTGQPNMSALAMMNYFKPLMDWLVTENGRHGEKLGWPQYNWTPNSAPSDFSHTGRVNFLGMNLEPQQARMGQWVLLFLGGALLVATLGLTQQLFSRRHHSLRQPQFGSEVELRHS
procedureSummary: angiotensin converting enzyme inhibition in guinea pig ileum (inhibition of contractile responses to Angiotensin I)
condition: dose-dependent inhibition of contractile responses to Angiotensin I, in vitro, read-out: EC50 (the source's name)
Structures can show the parent of a compound that is named as a salt.
Give pIC50 for every item shown.
Give bare numbers, as −log10 of the molar value.

molecule | valueReported
CC(C)NCC(O)COc1cccc2c(OCC(=O)NCCCC[C@H](NC(C)C(=O)N3CCC[C@H]3C(=O)O)C(=O)O)cccc12 (some centres unmarked) [Example 2, dihydrochloride acetate hemihydrate] | 7.87

Then this molecule:
**Query** Fill in the blank: the reported pIC50 of CC(C)NCC(O)COc1cccc2ccc(CNCCCC[C@H](NC(C)C(=O)N3CCC[C@H]3C(=O)O)C(=O)O)cc12 (some centres unmarked) [Example 5] is ____.
**Result** 8.02
